Tested on: SU-DHL-6 (B-Cell Non-Hodgkin's Lymphoma)
run description: Bliss excess, mean over the matrix (fraction); higher = more synergy
Exercise: state measured Bliss excess for each of the compounds provided.
One number for each entry.

INSERT INTO results (compound, assay_value) VALUES
  ('Cc1c2c(nn1C)CSCc1cc(n(C)n1)CSc1cc(c3ccccc3c1)OCCCc1c(C(=O)O)n(C)c3c-2c(Cl)ccc13 [AZD5991] + Nc1ccn([C@@H]2O[C@H](CO)[C@@H](O)C2(F)F)c(=O)n1 [Gemcitabine] (first compound max 1 µM, 7x7, partner max 0.3 µM)', 0.0242);

# ---- query compound ----
// Bliss excess value for Cc1cc2ncnn2cc1Nc1ncc2c(n1)n(C1CCOCC1)c(=O)n2C [AZD7648] + CN(C)CCCOc1ccc(-c2ccc3ncc4c(c3c2)n(C2CCOCC2)c(=O)n4C)cn1 [AZD0156] (first compound max 10 µM, 7x7, partner max 1 µM) : -0.0502

###

Exercise: state measured combination Emax for each of the compounds provided.
Tested on: CAL-51 (Breast Carcinoma)
run description: combination Emax (second highest fraction inhibited in the dose matrix, 72 h); higher = more inhibition; extreme values may be limits of the assay
One number for each entry.

As a guide, the following entries are already answered.
INSERT INTO assay_data (compound, endpoint, assay_value) VALUES
  ('CC1(C)CCC(CN2CCN(c3ccc(C(=O)NS(=O)(=O)c4ccc(NCC5CCOCC5)c([N+](=O)[O-])c4)c(Oc4cnc5[nH]ccc5c4)c3)CC2)=C(c2ccc(Cl)cc2)C1 [Venetoclax] + Cc1cc2ncnn2cc1Nc1ncc2c(n1)n(C1CCOCC1)c(=O)n2C [AZD7648] (first compound max 1 µM, 7x7, partner max 10 µM)', 'combination Emax', 0.289),
  ('CN(CCO)CC[C@H](CSc1ccccc1)Nc1ccc(S(=O)(=O)NC(=O)c2ccc(N3CCC([C@@H](O)c4ccccc4-c4ccc(Cl)cc4)CC3)cc2)cc1S(=O)(=O)C(F)(F)F [AZD4320] + Cn1cnc2c(F)c(Nc3ccc(Br)cc3Cl)c(C(=O)NOCCO)cc21 [Selumetinib] (first compound max 1 µM, 7x7, partner max 3 µM)', 'combination Emax', 0.487),
  ('NC1(C(=O)N[C@@H](CCO)c2ccc(Cl)cc2)CCN(c2ncnc3[nH]ccc23)CC1 [Capivasertib] + CC(C)n1c(=O)n(C)c2cnc3cc(F)c(-c4ccc(OCCCN5CCCCC5)nc4)cc3c21 [AZD1390] (first compound max 10 µM, 7x7, partner max 0.3 µM)', 'combination Emax', 0.488);

# ---- query compound ----
// combination Emax value for Cn1cnc2c(F)c(Nc3ccc(Br)cc3Cl)c(C(=O)NOCCO)cc21 [Selumetinib] + C=CCn1c(=O)c2cnc(Nc3ccc(N4CCN(C)CC4)cc3)nc2n1-c1cccc(C(C)(C)O)n1 [AZD1775] (first compound max 10 µM, partner max 1 µM) : 0.893

###

Tested on: OVCAR-8 (Ovarian Carcinoma)
run description: Bliss excess, mean over the matrix (fraction); higher = more synergy
endpoint: Bliss excess
Answers are plain numbers.

INSERT INTO results (compound, assay_value) VALUES
  ('Cc1cc2ncnn2cc1Nc1ncc2c(n1)n(C1CCOCC1)c(=O)n2C [AZD7648] + CN(C)CCCOc1ccc(-c2ccc3ncc4c(c3c2)n(C2CCOCC2)c(=O)n4C)cn1 [AZD0156] (first compound max 10 µM, 7x7, partner max 1 µM)', 0.0245),
  ('NC1(C(=O)N[C@@H](CCO)c2ccc(Cl)cc2)CCN(c2ncnc3[nH]ccc23)CC1 [Capivasertib] + C[C@@H]1COCCN1C2=NC(=NC(=C2)C3(CC3)[S@](=N)(=O)C)C4=C5C=CNC5=NC=C4 [AZD6738] (first compound max 10 µM, 7x7, partner max 10 µM)', -0.0485),
  ('CC1(C)CCC(CN2CCN(c3ccc(C(=O)NS(=O)(=O)c4ccc(NCC5CCOCC5)c([N+](=O)[O-])c4)c(Oc4cnc5[nH]ccc5c4)c3)CC2)=C(c2ccc(Cl)cc2)C1 [Venetoclax] + Cc1cc2ncnn2cc1Nc1ncc2c(n1)n(C1CCOCC1)c(=O)n2C [AZD7648] (first compound max 1 µM, 7x7, partner max 10 µM)', -0.0014),
  ('C=CCn1c(=O)c2cnc(Nc3ccc(N4CCN(C)CC4)cc3)nc2n1-c1cccc(C(C)(C)O)n1 [AZD1775] + C[C@@H]1COCCN1C2=NC(=NC(=C2)C3(CC3)[S@](=N)(=O)C)C4=C5C=CNC5=NC=C4 [AZD6738] (first compound max 1 µM, partner max 10 µM)', 0.0818),
  ('C[C@@H]1COCCN1c1cc(C2([S@](C)(=N)=O)CC2)nc(-c2ccnc3[nH]ccc23)n1 [AZD6738] + O=C(c1cc(Cc2n[nH]c(=O)c3ccccc23)ccc1F)N1CCN(C(=O)C2CC2)CC1 [Olaparib] (first compound max 10 µM, 7x7, partner max 10 µM)', 0.0495),
  ('CN(CCO)CC[C@H](CSc1ccccc1)Nc1ccc(S(=O)(=O)NC(=O)c2ccc(N3CCC([C@@H](O)c4ccccc4-c4ccc(Cl)cc4)CC3)cc2)cc1S(=O)(=O)C(F)(F)F [AZD4320] + C[C@@H](Nc1cc(F)cc(F)c1)c1cc(C(=O)N(C)C)cc2c(=O)cc(N3CCOCC3)oc12 [AZD8186] (first compound max 1 µM, 7x7, partner max 3 µM)', 0.0245);

# ---- query compound ----
CC1(C)CCC(CN2CCN(c3ccc(C(=O)NS(=O)(=O)c4ccc(NCC5CCOCC5)c([N+](=O)[O-])c4)c(Oc4cnc5[nH]ccc5c4)c3)CC2)=C(c2ccc(Cl)cc2)C1 [Venetoclax] + Cn1cnc2c(F)c(Nc3ccc(Br)cc3Cl)c(C(=O)NOCCO)cc21 [Selumetinib] (first compound max 1 µM, 7x7, partner max 3 µM) on OVCAR-8 (Ovarian Carcinoma) gives Bliss excess = -0.0373
